Catalogue of IC50 values
Biological target: T1, NaV1.7 (Homo sapiens, UniProt Q15858)
T1 construct: expressed in transfected cells; host or cells: HEK293
T1 sequence (Q15858 whole entry): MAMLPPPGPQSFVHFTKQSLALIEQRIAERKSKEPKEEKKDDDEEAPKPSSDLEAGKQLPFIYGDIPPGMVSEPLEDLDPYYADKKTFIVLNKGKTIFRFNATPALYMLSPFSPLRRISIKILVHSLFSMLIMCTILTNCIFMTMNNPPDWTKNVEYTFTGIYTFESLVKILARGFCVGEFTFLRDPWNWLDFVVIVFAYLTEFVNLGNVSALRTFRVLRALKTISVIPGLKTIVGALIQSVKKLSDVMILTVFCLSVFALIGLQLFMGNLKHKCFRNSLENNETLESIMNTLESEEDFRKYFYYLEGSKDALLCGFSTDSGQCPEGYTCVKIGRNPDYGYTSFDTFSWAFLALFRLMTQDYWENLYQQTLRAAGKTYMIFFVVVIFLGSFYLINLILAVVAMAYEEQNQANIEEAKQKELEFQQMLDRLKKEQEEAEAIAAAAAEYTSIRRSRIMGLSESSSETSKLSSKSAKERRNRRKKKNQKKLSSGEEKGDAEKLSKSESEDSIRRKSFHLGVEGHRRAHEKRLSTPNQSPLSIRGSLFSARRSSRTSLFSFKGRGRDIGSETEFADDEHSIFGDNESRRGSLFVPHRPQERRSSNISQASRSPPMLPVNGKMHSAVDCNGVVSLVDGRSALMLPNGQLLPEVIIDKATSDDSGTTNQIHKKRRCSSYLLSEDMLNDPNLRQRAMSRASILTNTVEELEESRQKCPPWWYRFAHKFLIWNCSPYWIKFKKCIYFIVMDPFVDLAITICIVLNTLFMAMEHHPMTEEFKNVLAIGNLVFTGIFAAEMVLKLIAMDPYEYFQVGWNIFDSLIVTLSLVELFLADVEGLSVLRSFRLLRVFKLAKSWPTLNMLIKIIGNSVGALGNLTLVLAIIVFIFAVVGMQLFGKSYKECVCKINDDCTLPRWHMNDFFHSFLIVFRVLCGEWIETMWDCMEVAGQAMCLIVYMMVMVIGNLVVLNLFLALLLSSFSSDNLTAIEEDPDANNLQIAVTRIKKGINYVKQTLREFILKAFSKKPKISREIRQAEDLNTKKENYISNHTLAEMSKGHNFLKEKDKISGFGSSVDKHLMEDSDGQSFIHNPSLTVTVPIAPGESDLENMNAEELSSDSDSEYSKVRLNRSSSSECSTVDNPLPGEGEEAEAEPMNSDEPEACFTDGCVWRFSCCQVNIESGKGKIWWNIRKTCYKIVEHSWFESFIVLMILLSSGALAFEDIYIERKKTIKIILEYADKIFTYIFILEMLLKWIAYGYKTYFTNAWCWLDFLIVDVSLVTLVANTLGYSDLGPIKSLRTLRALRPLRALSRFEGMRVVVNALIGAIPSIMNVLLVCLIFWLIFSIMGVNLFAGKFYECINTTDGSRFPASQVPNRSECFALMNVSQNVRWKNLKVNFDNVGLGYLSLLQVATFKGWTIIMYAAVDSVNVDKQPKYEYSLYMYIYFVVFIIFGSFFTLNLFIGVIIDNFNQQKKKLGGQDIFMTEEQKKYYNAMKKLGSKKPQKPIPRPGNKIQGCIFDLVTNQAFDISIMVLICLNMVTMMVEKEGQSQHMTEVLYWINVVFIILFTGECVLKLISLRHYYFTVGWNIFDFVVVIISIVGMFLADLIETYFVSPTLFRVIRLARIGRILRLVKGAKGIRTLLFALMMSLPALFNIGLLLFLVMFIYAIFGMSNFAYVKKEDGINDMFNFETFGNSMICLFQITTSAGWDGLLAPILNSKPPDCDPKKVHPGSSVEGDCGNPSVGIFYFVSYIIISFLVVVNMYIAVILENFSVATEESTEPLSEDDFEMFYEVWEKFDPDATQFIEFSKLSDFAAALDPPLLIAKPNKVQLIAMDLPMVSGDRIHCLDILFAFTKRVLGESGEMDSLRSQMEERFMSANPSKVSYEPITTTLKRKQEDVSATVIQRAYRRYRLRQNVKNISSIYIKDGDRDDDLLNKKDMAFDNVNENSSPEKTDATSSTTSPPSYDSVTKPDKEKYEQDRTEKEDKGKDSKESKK
Assay: Whole-cell patch clamp, HEK293-NaV1.7 cells
Assay type: cell-based
Conditions: non-competitive screening clones, 15 min incubation; read-out: IC50 ± SEM (nM) of Ab-PEG3-ASF in inhibiting NaV1.7
Give the value in nM but do not write nM after it.

// known answers, use as guide
molecule	IC50 [nM]
G3-PEG3-ASF: IgG1 Ab-UAA G3 conjugated with ASF-PEG3-DBCO (conjugate, non-natural residues, IgG1 Ab-UAA G3 conjugated with ASF-PEG3-DBCO) VH: EVQLVESGGGLVQPGGSLRLSCAASGFTFSASYMSWVRQAPGKGLEWIGSIYYSGSTYYNPSLKSRVTISADTSKNTAYLQMNSLRAEDTAVYYCARGAPYYEGAFDIWGQGTLVTVSS VL: DIQMTQSPSSLSASVGDRVTITCRASQYISTYLNWYQQKPGKAPKVLISKTSYLESGVPSRFSGSRSGTDFTLTISSLQPEDFATYYCQQXYTTPPTFGQGTKLEI	1.88
F3-PEG3-ASF: IgG1 Ab-UAA F3 conjugated with ASF-PEG3-DBCO (conjugate, non-natural residues, IgG1 Ab-UAA F3 conjugated with ASF-PEG3-DBCO) VH: EVQLVESGGGLVQPGGSLRLSCAASGFTFSGHWMHWVRQAPGKGLEWVASISDSSSYIYYADSVRGRFTISRDNAKKTLYLQMNSLRAEDTAVYYCARDYEGATRAADYWGQGTLVTVSS VL: DIQMTQSPSSLSASVGDRVTITCRASQVIGNDLGWYQQKPGKAPKLLIYDVSNVQTGVPSRFSGSRSGTDFTLTISSLQPEDFATYYCQQXYTTPPTFGQGTKLEI	2.69

Below: the item to evaluate.
Task item: For the molecule H3-PEG3-ASF: IgG1 Ab-UAA H3 conjugated with ASF-PEG3-DBCO (conjugate, non-natural residues, IgG1 Ab-UAA H3 conjugated with ASF-PEG3-DBCO) VH: EVQLVESGGGLVQPGGSLRLSCAASGFTFSDYWISWVRQAPGKGLEWIGNVYYSGNAYYNPSLESRVTISADTSKNTAYLQMNSLRAEDTAVYYCARNTGFETLDNWGQGTLVTVSS VL: DIQMTQSPSSLSASVGDRVTITCRASQSISSWLAWYQQKPGKAPNLLMYAASSLQSGVPSRFSGSRSGTDFTLTISSLQPEDFATYYCQQXYTTPPTFGQGTKLEI , give its measured IC50 value.
Reply: 1.13
